For each entry below, report its glycan array binding signal (z-score) value.
target: Neu5Ac(a2-3)Gal(b1-4)GlcNAc(b1-3)GalNAc; assay: glycan array binding signal (z-score within array); higher = stronger binding; conditions: glycan notation: IUPAC condensed, linker removed
The full list was thinned out, with the strongest signals kept by preference.

Read the entry Actd5 (Actinidia), P84527 (protein) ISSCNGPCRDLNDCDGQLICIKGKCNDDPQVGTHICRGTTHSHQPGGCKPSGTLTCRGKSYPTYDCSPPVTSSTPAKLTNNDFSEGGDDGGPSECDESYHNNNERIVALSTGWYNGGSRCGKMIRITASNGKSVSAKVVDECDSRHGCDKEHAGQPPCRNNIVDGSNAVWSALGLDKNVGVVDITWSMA and write its reported glycan array binding signal (z-score).
0.374

Provide glycan array binding signal (z-score) value for the following binder: OGAN (protein) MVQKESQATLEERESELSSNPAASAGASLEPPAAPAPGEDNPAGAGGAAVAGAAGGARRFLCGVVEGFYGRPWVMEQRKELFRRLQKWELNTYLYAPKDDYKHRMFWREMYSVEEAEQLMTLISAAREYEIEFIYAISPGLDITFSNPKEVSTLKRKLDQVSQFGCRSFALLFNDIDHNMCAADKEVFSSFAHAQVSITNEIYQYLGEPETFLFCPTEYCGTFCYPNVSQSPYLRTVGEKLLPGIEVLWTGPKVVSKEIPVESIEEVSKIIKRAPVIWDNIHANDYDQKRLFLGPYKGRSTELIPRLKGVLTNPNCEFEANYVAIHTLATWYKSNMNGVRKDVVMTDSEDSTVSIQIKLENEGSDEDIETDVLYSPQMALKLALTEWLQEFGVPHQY
-0.082

Give the reported glycan array binding signal (z-score) for this binder. Gal 8 (Mus musculus), Q9JL15 (protein) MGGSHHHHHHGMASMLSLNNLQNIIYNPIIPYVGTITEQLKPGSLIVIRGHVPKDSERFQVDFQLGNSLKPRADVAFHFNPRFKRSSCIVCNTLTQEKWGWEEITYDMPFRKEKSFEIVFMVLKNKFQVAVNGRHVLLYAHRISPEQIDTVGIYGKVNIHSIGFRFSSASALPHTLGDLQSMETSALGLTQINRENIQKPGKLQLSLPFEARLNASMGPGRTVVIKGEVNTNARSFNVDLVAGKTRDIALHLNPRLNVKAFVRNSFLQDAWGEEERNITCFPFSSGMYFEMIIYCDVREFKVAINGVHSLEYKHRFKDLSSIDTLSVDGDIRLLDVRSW
-0.525

Determine its reported glycan array binding signal (z-score): Gal 3 (Canis lupus) (protein) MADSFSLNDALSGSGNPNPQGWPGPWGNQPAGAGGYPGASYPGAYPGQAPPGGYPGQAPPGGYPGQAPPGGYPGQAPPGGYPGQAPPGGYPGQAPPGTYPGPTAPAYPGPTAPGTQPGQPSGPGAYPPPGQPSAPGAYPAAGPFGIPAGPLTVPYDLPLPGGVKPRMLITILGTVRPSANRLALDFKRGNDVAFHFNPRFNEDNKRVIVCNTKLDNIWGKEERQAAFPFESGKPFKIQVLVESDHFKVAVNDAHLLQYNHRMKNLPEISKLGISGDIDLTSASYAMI
-0.205

Check the records and state glycan array binding signal (z-score) for Lb MiSSP8 (Laccaria bicolor) (protein) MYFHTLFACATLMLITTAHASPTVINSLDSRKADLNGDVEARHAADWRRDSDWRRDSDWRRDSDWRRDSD
-0.122

Dear colleague, could you please provide glycan array binding signal (z-score) for the binders listed below?
1. LlpA1 (Pseudomonas fluorescens), Q4KHC3 (protein) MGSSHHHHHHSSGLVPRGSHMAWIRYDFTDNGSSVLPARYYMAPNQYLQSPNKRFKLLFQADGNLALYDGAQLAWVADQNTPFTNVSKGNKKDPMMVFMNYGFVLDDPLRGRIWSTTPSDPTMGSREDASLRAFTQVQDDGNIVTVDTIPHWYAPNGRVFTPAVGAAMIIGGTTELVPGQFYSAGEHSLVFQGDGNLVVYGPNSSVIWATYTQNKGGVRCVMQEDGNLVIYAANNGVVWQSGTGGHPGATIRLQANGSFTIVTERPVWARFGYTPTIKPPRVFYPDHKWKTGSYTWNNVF
2. UEA-I (Ulex europaeus), P22972 (protein) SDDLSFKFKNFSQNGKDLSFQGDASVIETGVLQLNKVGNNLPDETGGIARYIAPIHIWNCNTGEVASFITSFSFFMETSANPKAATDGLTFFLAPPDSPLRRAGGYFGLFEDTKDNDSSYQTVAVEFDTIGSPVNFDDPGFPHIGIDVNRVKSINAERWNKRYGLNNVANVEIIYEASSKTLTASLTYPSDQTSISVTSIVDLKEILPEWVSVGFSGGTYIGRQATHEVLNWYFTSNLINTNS

-0.31
-0.22

The values you see were collected from the supplement of paper PMC8728848.
